Tested on: HS 578T breast
Test: NCI-60 one-dose screen, 48 h
Settings: 10 µM unless noted
Compounds without any hit were thinned out: in the full panel of roughly 83,000, 20% have a hit. Activity calls are given as the source filed them. How the source made its calls: active means growth percent below 10; inactive means the rest.
// allowed return values: class 1 for active, class 0 for inactive

Example cases with answers are listed next.
CN1CCN(c2ccc(/C=N/Nc3nc4ccccc4c(=O)n3-c3ccccc3)cc2)CC1; class 0
CC(=O)O[C@@H]1C(=O)N(c2cnccn2)[C@H]1c1ccccc1[N+](=O)[O-]; class 0
COc1ccc(S(=O)(=O)NCCCNc2nccc(-c3[nH]c(-c4ccccc4)nc3-c3ccc(Cl)c(O)c3)n2)cc1; class 0
CN(C)CCNC(=O)c1ccc(-c2nc3ccc4[nH]ncc4c3c3c2COCC3)cc1; class 1
CC[C@]12C=CCN3CC[C@@]4(c5cc(NC(=O)COc6cc(O)c7c(=O)cc(-c8ccccc8)oc7c6)c(OC)cc5N(C)[C@H]4[C@@](O)(C(=O)OC)[C@@H]1OC(C)=O)[C@@H]32; class 1

QUERY: Per the records of this test, what outcome belongs to N#Cc1cnc2ccc(-c3cnc(N)nc3)cc2c1N1CCc2cc(F)c(Cl)cc21 ?
RESULT: class 1

QUERY: Another: CCN(CC)c1ccc2c(c1)Oc1nc(N)c(C#N)c(N)c1C2Sc1ccc(C)cc1 (stereo not drawn)
RESULT: class 1

QUERY: Another: COc1cc2c(cc1OC)C(Sc1ccc(C)cc1)c1c(nc(N)c(C#N)c1N)O2 (stereo not drawn)
RESULT: class 1

----------
System: MCF7 breast
Experiment: NCI-60 one-dose screen, 48 h (100 = growth as untreated, 0 = no growth, -100 = all killed)
Conditions: 10 µM unless noted
About 83,000 compounds went through this panel and 20% of them were active in at least one assay; those are over-represented in the sample as a whole.
measurementName: growth (%)
Output spec: scalar in %, unitless text.

CCCn1cnc2c(c1=N)C(c1ccc(OC)cc1)c1sc3c(CC)cccc3c1O2 (stereo not given); 18.4
O=S(=O)(NCCCNc1nccc(-c2[nH]c(-c3ccccc3)nc2-c2ccc(Cl)c(O)c2)n1)c1cccc(F)c1; 55.3
O=C(CCn1cc[n+](CC(=O)c2ccc(-c3ccccc3)cc2)c1)Nc1cccc2cccnc12; 58
Brc1ccccc1/C=N/Nc1nc(N/N=C/c2ccccc2Br)nc(N2CCOCC2)n1; 85.2

We next turn to a different compound, shown below.
QUERY: Please report the recorded growth for Nc1nc(-c2cccc([N+](=O)[O-])c2)c(N=Nc2ccccc2)s1 .
RESULT: 51.9

----------
Each record here notes measured growth.
System: TK-10 renal
Assay: NCI-60 one-dose screen, 48 h (100 = growth as untreated, 0 = no growth, -100 = all killed)
Settings: 10 µM unless noted
This is part of a sample that, as a whole, favours compounds with a hit. Of some 83,000 tested, about 20% had one in any assay.
Output spec: scalar in %, unitless text.

COc1ccc(COc2ccc(/C=C3\C(=O)Nc4ccccc43)cc2OC)cc1; 113
N=c1c2cc(-c3ccccc3)oc2ncn1/N=C/c1ccc(Cl)cc1; 112
CS(=O)(=O)c1ncc(-c2ccccc2)cn1; 97.3
CCCn1cnc2c(c1=N)C(c1ccc(Cl)cc1)c1sc3c(CC)cccc3c1O2 (stereo not drawn); 61.1
CC1(C)[C@@H](O)CC[C@]2(C)[C@H]3CC[C@@H]4[C@H]5[C@H](C(=O)/C=C\c6ccccn6)CC[C@]5(O)CC[C@@]4(C)[C@]3(C)CC[C@@H]12; 77.5
CC(O)c1cc2ccccc2c(=O)o1 (stereo not drawn); 105
C=CCOc1cccc(/C=C2\SC(=S)N(C3CC(=O)N(c4ccc(Br)cc4)C3=O)C2=O)c1 (stereo not drawn); 126
CCCCCc1ccc(S(=O)(=O)Nc2cccc(-c3csc(NC(=O)CCCCCN4CCN(C)CC4)n3)c2)cc1; 107
O=c1[nH]c2ccccc2cc1CSc1ccccc1Nc1nccc(-c2ccc(Cl)cc2)n1; 115
O=C(CSc1nnc(-c2ccc3nc(-c4ccccc4)[nH]c3c2)o1)Nc1ccc(C(=O)/C=C/c2ccccc2)cc1; 110

QUERY: Please report the recorded growth for CCOP(=O)(OCC)OC[C@]12CCC(C)(C)C=C1[C@H]1CC[C@@H]3[C@@]4(C)CC[C@H](OP(=O)(OCC)OCC)C(C)(C)[C@@H]4CC[C@@]3(C)[C@]1(C)CC2 .
RESULT: -18

QUERY: Another: N#Cc1cccc(CN2CCc3ncn(Cc4ccc(Cl)cc4)c(=O)c3C2)c1
RESULT: 38.1

QUERY: Another: CCOC(=O)c1c(NC(=O)c2ccccc2C(F)(F)F)sc2c1CCC(=O)C2
RESULT: 91.1

QUERY: Another: O=S(=O)(NCCCNc1nccc(-c2[nH]c(-c3ccccc3)nc2-c2ccc(Cl)c(O)c2)n1)c1cccc(F)c1
RESULT: 98.2

QUERY: Another: O=C(CSc1nnc(-c2ccc(Cl)cc2)n1-c1ccccc1)Nc1cccc(Cl)c1
RESULT: 75.1

----------
System: TK-10 renal
Test: NCI-60 one-dose screen, 48 h (100 = growth as untreated, 0 = no growth, -100 = all killed)
Conditions: 10 µM unless noted
This is part of a sample that, as a whole, favours compounds with a hit. Of some 83,000 tested, about 20% had one in any assay.
Each record here notes measured growth.
Output spec: scalar in %, unitless text.

COc1ccc(-c2cc(-c3ccc(Cl)cc3)c(C#N)c(=O)n2Cc2ccc(C(=O)O)cc2)cc1; 116
Nc1ncc(-c2ccc3ncnc(N4CCc5cc(F)c(F)cc54)c3c2)cn1; -2.82
COC[C@]12CCC(C)(C)C[C@H]1C1=CC[C@@H]3[C@@]4(C)CCCNC(C)(C)[C@@H]4CC[C@@]3(C)[C@]1(C)CC2; 64.7
C#Cc1nc(/C=C/C(=O)c2nccn2C)cs1; -18.8

QUERY: Please report the recorded growth for CCN(CC)c1ccc2c(c1)Oc1nc(N)c(C#N)c(N)c1C2Sc1ccc(C)cc1 (stereo not given) .
RESULT: -90.6

----------
Tested on: OVCAR-8 ovarian
Assay: NCI-60 one-dose screen, 48 h (100 = growth as untreated, 0 = no growth, -100 = all killed)
Settings: 10 µM unless noted
This is part of a sample that, as a whole, favours compounds with a hit. Of some 83,000 tested, about 20% had one in any assay. Active and inactive are the calls of the source. How the source made its calls: active means growth percent below 10; inactive means the rest.
measurementName: growth

Consider the worked cases shown below.
N#Cc1cccc(/C(N)=N/C(N)=N/c2nc3ccccc3s2)c1; 35% (inactive)
CC(=O)c1ccc(Nc2nc(SCC(C)C)nc(-c3ccccc3)c2C#N)cc1; 70% (inactive)
O=C(NNc1nc2cc(F)c(F)cc2n2c(CN3CC4CNCC4C3)ccc12)c1cnccn1 (centres undefined); 13.8% (inactive)
CN1CCN(Cc2ccc(NC(=O)c3cncc(C#Cc4cnc5ccc(OCC6(C)COC6)nn45)c3)cc2C(F)(F)F)CC1; -15.3% (active)
Cc1nc(-c2ccccc2O)ccc1C(=O)N=Nc1c(O)[nH]c2ccc(Br)cc12; 97.9% (inactive)

QUERY: Please report the recorded growth for CC1(COc2ccc3ncc(C#Cc4cncc(C(=O)Nc5cccc(C(F)(F)F)c5)c4)n3n2)COC1 .
RESULT: 81.4% (inactive)

QUERY: Another: Cc1ccc(NC(=O)c2ccc(CN3CCN(C)CC3)cc2)cc1Oc1ccc(-c2[nH]nc3ncnc(N)c23)cc1
RESULT: 99.5% (inactive)

QUERY: Another: CC(C)c1ccc(NCc2cn(-c3ccc(C(=O)O)cc3)nc2-c2cc(C(F)(F)F)cc(C(F)(F)F)c2)cc1
RESULT: 85% (inactive)

QUERY: Another: COc1ccccc1-n1cc(C#N)c(N)c1C(=O)c1ccc(Cl)cc1
RESULT: 96.7% (inactive)

QUERY: Another: COc1c(N2CC3CCCNC3C2)c(F)cc2c(=O)c(C(=O)N/N=C/c3ccccc3)cn(C3CC3)c12 (centres undefined)
RESULT: 99.9% (inactive)

QUERY: Another: COc1cc(OC)c(/C=C/S(=O)(=O)Cc2ccc(OC)c(NC(=O)CCC(=O)NO)c2)c(OC)c1
RESULT: 17.2% (inactive)

QUERY: Another: COc1ccc([C@H]2[C@H](O)C(=O)N2c2cc(OC)c(OC)c(OC)c2)cc1F
RESULT: -15% (active)

QUERY: Another: NC(N)=Nc1ccc(Nc2cccc(Oc3ccc(Cl)c(C(F)(F)F)c3)c2)cn1
RESULT: 27.4% (inactive)

QUERY: Another: COc1ccc(C(=O)Nc2ncc(Cc3ccccc3Cl)s2)cc1
RESULT: 12.3% (inactive)

QUERY: Another: Nc1cc(-c2c[nH]c3ccc(Br)cc23)nc2cc(-c3c[nH]c4ccc(Br)cc34)nn12
RESULT: 24.5% (inactive)

QUERY: Another: CCCn1cnc2c(c1=N)C(c1ccc(OC)cc1)c1sc3c(CC)cccc3c1O2 (centres undefined)
RESULT: 26.9% (inactive)

QUERY: Another: CC(C)(C)c1ccc(-c2nnc(-c3nc4ccccc4nc3Cl)o2)cc1
RESULT: 84.2% (inactive)

QUERY: Another: COc1cc(OC)c(S(N)(=O)=O)cc1C(=O)/C=C/c1ccc(C)cc1
RESULT: 31.7% (inactive)

QUERY: Another: Oc1cccc2ccc(-c3nnc(SCc4ccc(O)c5ncccc45)n3-c3ccccc3)nc12
RESULT: 6.56% (active)
